This collection of values is drawn from ChEMBL document CHEMBL2331103.

Molecular target: UniProt:P35610
Sequence (P35610 whole entry): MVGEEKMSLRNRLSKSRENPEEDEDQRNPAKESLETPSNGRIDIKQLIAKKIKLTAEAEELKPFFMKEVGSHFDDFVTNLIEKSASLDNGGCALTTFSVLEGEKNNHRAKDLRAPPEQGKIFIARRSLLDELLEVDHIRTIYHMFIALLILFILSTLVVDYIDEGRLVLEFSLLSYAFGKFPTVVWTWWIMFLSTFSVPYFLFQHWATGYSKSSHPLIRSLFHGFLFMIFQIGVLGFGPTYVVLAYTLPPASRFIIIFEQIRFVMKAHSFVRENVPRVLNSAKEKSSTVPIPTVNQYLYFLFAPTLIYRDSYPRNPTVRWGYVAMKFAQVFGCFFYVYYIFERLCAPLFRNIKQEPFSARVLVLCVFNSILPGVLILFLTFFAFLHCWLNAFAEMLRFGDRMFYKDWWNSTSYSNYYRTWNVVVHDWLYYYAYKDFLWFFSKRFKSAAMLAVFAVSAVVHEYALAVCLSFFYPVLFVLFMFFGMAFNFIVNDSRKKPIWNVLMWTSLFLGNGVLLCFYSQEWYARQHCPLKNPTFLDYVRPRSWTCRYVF
Test: Inhibition of human macrophage ACAT expressed in human HepG2 cells using [14C]oleoyl-CoA as substrate incubated for 20 mins prior to substrate addition measured after 25 mins by liquid scintillation counting analysis
Can you tell me IC50 for the items I'm about to list?
Numbers only, in µM.

> print(dat)
                                   compound  measured.result
1                 CCCSC1=CC(=O)c2ccccc2C1=O             5.08
2            CCCCCCCCSC1=CC(=O)c2ccccc2C1=O                6
3                  CCSC1=CC(=O)c2ccccc2C1=O             7.51
4  CCCCCCCCCC[S+]([O-])C1=CC(=O)c2c(OC)ccc(OC)c2C1=O (stereo unspecified)              8.4
5     CCCCCCCCCCCCCCCSC1=CC(=O)c2ccccc2C1=O             4.13

Here is another compound to look at.
**Q:** Using the record for C[S+]([O-])C1=CC(=O)c2ccccc2C1=O (stereo unspecified) , report its IC50.
**A:** 5.66
